# EXPERIMENTAL_SYSTEM: human Fc (human)
# ASSAY: ELISA, negative control
Response field label: string, one of 1 (yes) (optical density strictly below 0.3 OD) or 0 (no).

binder="373_H07 (antibody, V domains shown) VH: EVQLLESGGGLVQPGGSLRLSCAASGFTFSSYSMNWVRQAPGKGLEWVAGINYNGGYTSYADSVKGRFTISRDNSKNTLYLQMNSLRAEDTAVYYCARGANWHDTHLDYWGQGTLVTVSS VL: DIQMTQSPSSLSASVGDRVTITCRASQSIVTYLNWYQQKPGKAPKLLIYAASSLQSGVPSRFSGSGSGTDFTLTISSLQPEDFATYYCQQSYDSPLTFGGGTKVEIK" category="1 (yes)"
binder="374_A03 (antibody, V domains shown) VH: EVQLLESGGGLVQPGGSLRLSCAASGFTFDSYSMNWVRQAPGKGLEWVSNINYNGGYTSYADSVKGRFTISRDNSKNTLYLQMNSLRAEDTAVYYCARSATWHDTHLDYWGQGTLVTVSS VL: DIQMTQSPSSLSASVGDRVTITCRASQSILTYLNWYQQKPGKAPKLLIYAATSRASGVPSRFSGSGSGTDFTLTISSLQPEDFATYYCQQSYDNPLTFGGGTKVEIK" category="1 (yes)"

Given the entry 368_A02 (antibody, V domains shown) VH: EVQLLESGGGLVQPGGSLRLSCAASGFTFDSYGMNWVRQAPGKGLEWVAGINYNGGYKSYADSVKGRFTISRDNSKNTLYLQMNSLRAEDTAVYYCARAANWHDTHLDYWGQGTLVTVSS VL: DIQMTQSPSSLSASVGDRVTITCRASQSIISYVNWYQQKPGKAPKLVIYAATSRASGVPSRFSGSGSGTDFTLTISSLQPEDFATYYCQQSYDTPLTFGGGTKVEIK , would its reported optical density be below 0.3 OD?
0 (no)

Given the entry 374_E03 (antibody, V domains shown) VH: EVQLLESGGGLVQPGGSLRLSCAASGFTFSSYSMNWVRQAPGKGLEWVSNINYNSGYKGYADSVKGRFTISRDNSKNTLYLQMNSLRAEDTAVYYCARSATWHDTHLDYWGQGTLVTVSS VL: DIQMTQSPSSLSASVGDRVTITCRASQSILTYVNWYQQKPGKAPKLVIYAATSLASGVPSRFSGSGSGTDFTLTISSLQPEDFATYYCQQSYDTPLTFGGGTKVEIK , would its reported optical density be below 0.3 OD?
1 (yes)

Given the entry 368_E08 (antibody, V domains shown) VH: EVQLLESGGGLVQPGGSLRLSCAASGFTFDSYGMHWVRQAPGKGLEWVANINYNSGYTGYADSVKGRFTISRDNSKNTLYLQMNSLRAEDTAVYYCARAATWHDTHLDYWGQGTLVTVSS VL: DIQMTQSPSSLSASVGDRVTITCRASQSILSYVNWYQQKPGKAPKLVIYAATSLHSGVPSRFSGSGSGTDFTLTISSLQPEDFATYYCQQSYETPLTFGGGTKVEIK , would its reported optical density be below 0.3 OD?
1 (yes)

Given the entry 374_B05 (antibody, V domains shown) VH: EVQLLESGGGLVQPGGSLRLSCAASGFTFDSYSMNWVRQAPGKGLEWVSGINYNSGYTSYADSVKGRFTISRDNSKNTLYLQMNSLRAEDTAVYYCARGANWHDTALDYWGQGTLVTVSS VL: DIQMTQSPSSLSASVGDRVTITCRASQSIVSYLNWYQQKPGKAPKLLIYAATSRHSGVPSRFSGSGSGTDFTLTISSLQPEDFATYYCQQSYESPLTFGGGTKVEIK , would its reported optical density be below 0.3 OD?
1 (yes)

Given the entry 376_G02 (antibody, V domains shown) VH: EVQLLESGGGLVQPGGSLRLSCAASGFTFSDYGMNWVRQAPGKGLEWVSGINYNGGYTSYADSVKGRFTISRDNSKNTLYLQMNSLRAEDTAVYYCARAANWHDTALDYWGQGTLVTVSS VL: DIQMTQSPSSLSASVGDRVTITCRASQSISRYLNWYQQKPGKAPKLVIYAATSLASGVPSRFSGSGSGTDFTLTISSLQPEDFATYYCQQSYDNPLTFGGGTKVEIK , would its reported optical density be below 0.3 OD?
1 (yes)

Given the entry 375_F02 (antibody, V domains shown) VH: EVQLLESGGGLVQPGGSLRLSCAASGFTFSSYSMNWVRQAPGKGLEWVASINYNSGYTSYADSVKGRFTISRDNSKNTLYLQMNSLRAEDTAVYYCARGANWHDTHLDYWGQGTLVTVSS VL: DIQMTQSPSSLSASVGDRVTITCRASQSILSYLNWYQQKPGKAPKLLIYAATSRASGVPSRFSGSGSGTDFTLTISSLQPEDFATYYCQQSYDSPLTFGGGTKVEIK , would its reported optical density be below 0.3 OD?
1 (yes)

Given the entry 369_E04 (antibody, V domains shown) VH: EVQLLESGGGLVQPGGSLRLSCAASGFTFSDYSMNWVRQAPGKGLEWVSGINYNSGYKSYADSVKGRFTISRDNSKNTLYLQMNSLRAEDTAVYYCARSATWHDTHLDYWGQGTLVTVSS VL: DIQMTQSPSSLSASVGDRVTITCRASQSILSYVNWYQQKPGKAPKLVIYAATSRASGVPSRFSGSGSGTDFTLTISSLQPEDFATYYCQQSYSLPLTFGGGTKVEIK , would its reported optical density be below 0.3 OD?
0 (no)
